B1: LINE1-mini (parent)
chain: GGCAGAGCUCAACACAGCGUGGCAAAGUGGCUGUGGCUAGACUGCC

# Variants of: B1
# method: self-cleavage, relative activity (ratio to wild type); higher = more cleavage; in vitro, sequencing; the parent is a self-cleaving ribozyme

| macromolecule_sequence | self-cleavage |
| --- | --- |
| GGCAGAGAUCAACACAGCGUGGCAAAGUAGCUGUGGCUAGACUGCC [C8A G29A] | 0.26 |
| GGCGGAGCUCAACACAGCGUGGCAAAGUGGCGGUGGCUAGACUGCC [A4G U32G] | 0.08 |
| GGCAGAGCUCAACAUAGCGUGGCAAAGUGGCUGUGGCUAGACUUCC [C15U G44U] | 0.09 |
| GGCAGAGCUCAACACAGCGGGGCAAAGUGCCUGUGGCUAGACUGCC [U20G G30C] | 0.3 |
| GGCACAGCUCAACACAGCGUGGCAAAGUGGCUGUUGCUAGACUGCC [G5C G35U] | 0.07 |
| GGCAGAGCUCAACACAGCGUGGCAAAGUGGUUGUUGCUAGACUGCC [C31U G35U] | 0.07 |
| GGCAGGGCUCAGCACAGCGUGGCAAAGUGGCUGUGGCUAGACUGCC [A6G A12G] | 0.03 |
| GGAAGAGGUCAACACAGCGUGGCAAAGUGGCUGUGGCUAGACUGCC [C3A C8G] | 0.3 |
| GGCAGACCUCCACACAGCGUGGCAAAGUGGCUGUGGCUAGACUGCC [G7C A11C] | 0.04 |
| GGCAGAGCACAACACAGCGUUGCAAAGUGGCUGUGGCUAGACUGCC [U9A G21U] | 0.15 |
| GGCAAAGCUCAACACAGCGUGGCAAAGUGCCUGUGGCUAGACUGCC [G5A G30C] | 0.12 |
| GGCAGAGUCCAACACAGCGUGGCAAAGUGGCUGUGGCUAGACUGCC [C8U U9C] | 0.06 |
| UGCAGAGCUCAACACAGCGUGGCAAAGUGGCCGUGGCUAGACUGCC [G1U U32C] | 0.08 |
| GGCAGAGCUCAACACAGCGUGGCAAAGUGGCUGUGCCCAGACUGCC [G36C U38C] | 0.05 |
| GGCAGAGCUCAACACAGCGUGGCAAUGUGGUUGUGGCUAGACUGCC [A26U C31U] | 0.18 |
| GGCAGAGCUCAACACAGCGUGGCAAAGUGGCUCUGGCUAGACUGGC [G33C C45G] | 0.06 |
| GGCAGAGCUCAACACAGCGUGGCAAAGGGCCUGUGGCUAGACUGCC [U28G G30C] | 0.77 |
| GGCAGAGCUCAAGACAGCGCGGCAAAGUGGCUGUGGCUAGACUGCC [C13G U20C] | 0.1 |
| GGCAGAGCUCAACACAGCGUGGCAAAGUGGUUGUGGCUAGACUCCC [C31U G44C] | 0.07 |
| GGCAGAGCUCAACACAGCGUGACAAAGUGGCUGAGGCUAGACUGCC [G22A U34A] | 0.2 |
| GGCAGAGCUCAACACAGCGUGGCAAAGUGGAUGCGGCUAGACUGCC [C31A U34C] | 0.06 |
| GGCAGAGCUCAACACAGCGUGGCUAAUUGGCUGUGGCUAGACUGCC [A24U G27U] | 0.8 |
| GGCAUAGCUCAACACAGCGAGGCAAAGUGGCUGUGGCUAGACUGCC [G5U U20A] | 0.06 |
| GGCAGAGCUCAACACAACGUGGCAAAGUGGCUGUGGCAAGACUGCC [G17A U38A] | 0.21 |
| GGCAGAGCUCAACACAGCGUGGCAUAGUUGCUGUGGCUAGACUGCC [A25U G29U] | 2.16 |
| GGCAGAGCUCAACACAGGGUGGCAAAGUGGCAGUGGCUAGACUGCC [C18G U32A] | 0.05 |
| GGCAGAGCUCAACACAGCAUGGCAAAGUGGCUGCGGCUAGACUGCC [G19A U34C] | 0.43 |
| GGCAGAGCCCAACACAGCGUGGUAAAGUGGCUGUGGCUAGACUGCC [U9C C23U] | 0.02 |
| GGCAAAGCUCAACACAGCGUGGCAAAGUGGCUAUGGCUAGACUGCC [G5A G33A] | 0.1 |
| GGCAGAGCUCAACACAGCGUGGCAAAGCGGCUGAGGCUAGACUGCC [U28C U34A] | 0.22 |
| GACAGAGCUCAACACAGCGUGGCAAAGUGGCUGUGGCUACACUGCC [G2A G40C] | 0.12 |
| GGCAGAGCUCAACACAGCGUUGCAAAGUGGCUGUGGAUAGACUGCC [G21U C37A] | 0.09 |
| GGCAGAGCUCAACACAGCCUAGCAAAGUGGCUGUGGCUAGACUGCC [G19C G21A] | 0.51 |
| GGCAGAGCUCAACACAGCGUGGCAAAGAGGGUGUGGCUAGACUGCC [U28A C31G] | 0.13 |
| GGCAGAGUUCAUCACAGCGUGGCAAAGUGGCUGUGGCUAGACUGCC [C8U A12U] | 0.29 |
| GGCAGAGCUCAACACAGCCUGGCAAAGUGGCUGUGGCUAGACAGCC [G19C U43A] | 0.02 |
| GGCAGAGCUCAACACAGGGUGGCAAAGUGACUGUGGCUAGACUGCC [C18G G30A] | 0.92 |
| GGCAGAGCUCAACACAGCGUGGCAAAGUGGCUGUGGCUAGACCGGC [U43C C45G] | 0.1 |
| GGCAGAGCUCAACACAGAGUGGCAAAGUGGCUGUGGGUAGACUGCC [C18A C37G] | 0.07 |
| GGCAGAGCUCAACACAGAGUGGCCAAGUGGCUGUGGCUAGACUGCC [C18A A24C] | 0.18 |
| GGAAGAGCUCAACACAGCGUGGCGAAGUGGCUGUGGCUAGACUGCC [C3A A24G] | 0.78 |
| GGCAGAGCUCAACACAGCGUUGCAAAGUGGCUGUGGCUAGACUGCU [G21U C46U] | 1.13 |
| GUCAGAGCUCAACACAGCGUGGCAAAGUGGCUGUGACUAGACUGCC [G2U G36A] | 0.05 |
| GGCAGAGCUCAACACAGCGUGGCAAAGUGACUGUGGCUAGACUGCG [G30A C46G] | 1.5 |
| GGCAGAGCUUAACACAGCGUGGCAAAGUGGCUGUGGCUACACUGCC [C10U G40C] | 0.04 |
| GGCAGAGCUCAACACAGCGUGGCAAAGUGUAUGUGGCUAGACUGCC [G30U C31A] | 0.19 |
| GGCAAACCUCAACACAGCGUGGCAAAGUGGCUGUGGCUAGACUGCC [G5A G7C] | 0.23 |
| GGCAGAGCACUACACAGCGUGGCAAAGUGGCUGUGGCUAGACUGCC [U9A A11U] | 0.03 |
| GGCAGAGUUCAACACAGCGUGUCAAAGUGGCUGUGGCUAGACUGCC [C8U G22U] | 0.16 |
| GGCAGAGUUCAACACAGCGUGGCAAAUUGGCUGUGGCUAGACUGCC [C8U G27U] | 0.14 |
| GGCAGAGCUCAACACAGCGUGGCAAAGUCGCUGUGGCUAGACUUCC [G29C G44U] | 0.37 |
| GGCAGAGCUCAACACAGCGUGGCAACGUGGCUGUGGGUAGACUGCC [A26C C37G] | 0.02 |
| GGCAGAGUUCAACACAGCGGGGCAAAGUGGCUGUGGCUAGACUGCC [C8U U20G] | 0.12 |
| GGCAGAGCUCAACACAGCGUGGCAAGGUGGCUGUGGCUAGACUACC [A26G G44A] | 0.31 |
| GGCAGAGCUCAACACAGCGUGCCACAGUGGCUGUGGCUAGACUGCC [G22C A25C] | 0.31 |
| GGCAGAGCUCAACACAGCGUGGCACAGCGGCUGUGGCUAGACUGCC [A25C U28C] | 0.44 |
| GGCAGAGCUCAACGCAGCGUGGCAAAGUGGGUGUGGCUAGACUGCC [A14G C31G] | 0.04 |
| GGCAGAGUUCAACACAGCGUGGCAAAGUAGCUGUGGCUAGACUGCC [C8U G29A] | 0.21 |
| AGCAGAGCCCAACACAGCGUGGCAAAGUGGCUGUGGCUAGACUGCC [G1A U9C] | 0.1 |
| GCCAGAGCUCAACACAGCGCGGCAAAGUGGCUGUGGCUAGACUGCC [G2C U20C] | 0.08 |
